target: S1P-1 receptor (Homo sapiens)
Sequence (P21453 whole entry): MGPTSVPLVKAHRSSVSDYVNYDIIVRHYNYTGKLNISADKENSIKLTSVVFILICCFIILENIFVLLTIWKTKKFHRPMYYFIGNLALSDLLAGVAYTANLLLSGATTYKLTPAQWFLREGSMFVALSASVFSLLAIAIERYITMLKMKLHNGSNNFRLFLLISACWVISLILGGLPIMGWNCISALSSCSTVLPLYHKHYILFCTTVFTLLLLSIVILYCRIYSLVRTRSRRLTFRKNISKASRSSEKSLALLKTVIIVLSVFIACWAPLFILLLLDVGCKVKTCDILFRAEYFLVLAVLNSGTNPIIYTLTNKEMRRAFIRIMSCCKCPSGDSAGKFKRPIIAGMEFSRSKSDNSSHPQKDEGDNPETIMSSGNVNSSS
Catalogue of IC50 values

C[C@](N)(COP(=O)(O)O)c1ncc(-c2ccc(Sc3cccc(OCc4ccccc4)c3)c(C(F)(F)F)c2)[nH]1: 0.001 to 100 nM
C[C@](N)(COP(=O)(O)O)c1nnc(-c2ccc(Sc3cccc(OCc4ccccc4)c3)cc2Cl)s1: 0.001 to 100 nM
C[C@](N)(COP(=O)(O)O)c1nnc(-c2ccc(Sc3cccc(O)c3)cc2Cl)s1: 100 to 1000 nM

Now for another entry.
Data request: I'd like to know its IC50. The molecule in question is C[C@](N)(COP(=O)(O)O)c1nnc(-c2ccc(Sc3cccc(OCc4ccccc4)c3)c(C(F)(F)F)c2)s1
Data returned: 0.001 to 100 nM

----------
target: UniProtKB P21453
test: 35S-GTPγS binding assay (EC50, agonism)
details: 35S-GTPγS binding assay as described in WO 03/061567
quantity-kind: pEC50
Interpret pEC50 as the negative base-10 log of the concentration measured in mol/L.

Data request: I'd like to know its pEC50. The molecule in question is C[C@](N)(COP(=O)(O)O)C(=O)Nc1ccc(Sc2cccc(OCc3ccccc3)c2)cc1Cl
Data returned: 8.16

----------
target: S1P-3 receptor (Homo sapiens)
Sequence (Q99500 whole entry): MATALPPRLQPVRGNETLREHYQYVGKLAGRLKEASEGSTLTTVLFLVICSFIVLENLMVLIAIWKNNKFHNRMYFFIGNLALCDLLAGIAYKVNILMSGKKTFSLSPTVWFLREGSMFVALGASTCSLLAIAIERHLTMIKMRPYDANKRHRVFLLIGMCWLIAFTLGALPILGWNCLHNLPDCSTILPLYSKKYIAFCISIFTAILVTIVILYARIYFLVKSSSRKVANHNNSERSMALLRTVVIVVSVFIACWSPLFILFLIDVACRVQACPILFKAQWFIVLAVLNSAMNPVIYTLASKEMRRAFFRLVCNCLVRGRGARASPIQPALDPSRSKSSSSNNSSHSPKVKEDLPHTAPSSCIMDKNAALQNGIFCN
quantity-kind: IC50

Data request: Checklist item: IC50 tested on S1P-3 receptor (Homo sapiens), entry C[C@](N)(COP(=O)(O)O)c1nnc(-c2ccc(Sc3cccc(OCc4ccccc4)c3)cc2Cl)s1 , value?
Data returned: 100 to 1000 nM

Where do these numbers come from? They come from patent US20090318389A1.
